Tested on: Q55T
Details: read-out: Operator capture by LLhP and variants (× 10^-7 M hypoxanthine), lacO^1; [co-repressor]mid; SD, n = 3
Quantity: EC50

Q: For the compound O=c1[nH]cnc2[nH]cnc12 , what EC50 is on record?
Result: 1000 nM

###

System: Q55V
Conditions: read-out: Operator capture by LLhP and variants (× 10^-7 M hypoxanthine), lacO^1; [co-repressor]mid; SD, n = 3
Quantity: pEC50
Numbers only, as −log10 of the molar value.

Q: For the compound O=c1[nH]cnc2[nH]cnc12 , what pEC50 is on record?
Result: 6.00

###

Test system: I48S
Details: read-out: Operator capture by LLhP and variants (× 10^-7 M hypoxanthine), lacO^disC; [co-repressor]mid; SD, n = 3
Quantity: pEC50
Give bare numbers, as −log10 of the molar value.

Q: For the compound O=c1[nH]cnc2[nH]cnc12 , what pEC50 is on record?
Result: 5.80
